Record form. Attribute: pIC50. Fill in for each entry.
- targetOrTestSystem: Recombinant human BACE1 (Homo sapiens, UniProt P56817)
- Sequence (P56817 46-501): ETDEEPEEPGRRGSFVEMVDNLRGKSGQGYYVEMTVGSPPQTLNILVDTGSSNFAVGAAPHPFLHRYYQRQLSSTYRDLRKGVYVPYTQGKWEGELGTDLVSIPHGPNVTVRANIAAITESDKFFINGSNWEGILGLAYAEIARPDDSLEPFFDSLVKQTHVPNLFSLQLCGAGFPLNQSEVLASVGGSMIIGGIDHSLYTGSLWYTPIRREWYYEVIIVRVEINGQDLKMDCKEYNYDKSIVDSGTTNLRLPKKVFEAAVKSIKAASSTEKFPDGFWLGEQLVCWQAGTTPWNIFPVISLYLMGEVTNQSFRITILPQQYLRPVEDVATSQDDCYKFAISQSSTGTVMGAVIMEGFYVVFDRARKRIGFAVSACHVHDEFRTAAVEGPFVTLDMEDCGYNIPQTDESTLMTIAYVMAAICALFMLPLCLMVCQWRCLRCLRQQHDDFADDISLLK
- experimentDescription: Assay of BACE1 inhibiting activity
- conditionNotes: 50% inhibitory concentration against enzymatic activity, pH 5.0, 30° C., 3 hours
pIC50: −log10 of the molar value.

Asked: Given the entry `CC#CCOc1cnc(C(=O)Nc2cccc(C/N=C(/N)SCc3ccccc3)c2)cn1` , what pIC50 was observed with Recombinant human BACE1 (Homo sapiens, UniProt P56817)?
Given back: ≥ 6.00

Asked: Given the entry CO/C(N)=N\C(c1ccc(OC)cc1)c1cccc(NC(=O)c2ccc(C#N)cn2)c1 (stereo not shown) , what pIC50 was observed with Recombinant human BACE1 (Homo sapiens, UniProt P56817)?
Given back: ≥ 6.00

Asked: Given the entry `CC#CCOc1cnc(C(=O)Nc2ccc(Oc3cccc(OC)c3)c(C/N=C(/N)SC)c2)cn1` , what pIC50 was observed with Recombinant human BACE1 (Homo sapiens, UniProt P56817)?
Given back: ≥ 6.00

Asked: Given the entry `CS/C(N)=N\C1(c2cc(NC(=O)c3ccc(C#N)cn3)ccc2F)CC1` , what pIC50 was observed with Recombinant human BACE1 (Homo sapiens, UniProt P56817)?
Given back: 5.44

###

Record form. Attribute: IC50. Fill in for each entry.
- targetOrTestSystem: Recombinant human BACE1 (Homo sapiens, UniProt P56817)
- experimentDescription: Assay of BACE1 inhibiting activity
- conditionNotes: 50% inhibitory concentration against enzymatic activity, pH 5.0, 30° C., 3 hours

Asked: Given the entry CC#CCOc1cnc(C(=O)Nc2cccc(C/N=C(/N)SCc3ccncc3)c2)cn1.O=CO [Compound 12] , what IC50 was observed with Recombinant human BACE1 (Homo sapiens, UniProt P56817)?
Given back: 270 nM

Asked: Given the entry [2H]C([2H])([2H])Oc1ccc(C(NC(=N)OC)c2cccc(NC(=O)c3ccc(C#N)cn3)c2)cc1 (stereo not shown) [Compound 102] , what IC50 was observed with Recombinant human BACE1 (Homo sapiens, UniProt P56817)?
Given back: ≤ 1000 nM

Asked: Given the entry CO/C(N)=N\C1(c2cccc(NC(=O)c3ccc(C#N)cn3)c2)CC1 [Compound 44] , what IC50 was observed with Recombinant human BACE1 (Homo sapiens, UniProt P56817)?
Given back: ≤ 1000 nM

Asked: Given the entry CC#CCOc1cnc(C(=O)Nc2cccc(C/N=C(/N)SCc3ccccn3)c2)cn1.O=CO [Compound 11] , what IC50 was observed with Recombinant human BACE1 (Homo sapiens, UniProt P56817)?
Given back: 290 nM

Asked: Given the entry CO/C(N)=N/C(C)(c1ccc(F)cc1)c1cccc(NC(=O)c2ccc(C#N)cn2)c1 (single isomer, unassigned) [Compound 101] , what IC50 was observed with Recombinant human BACE1 (Homo sapiens, UniProt P56817)?
Given back: ≤ 1000 nM

Asked: Given the entry C=CCS/C(N)=N\Cc1cccc(NC(=O)c2cnc(OCC#CC)cn2)c1 [Compound 5] , what IC50 was observed with Recombinant human BACE1 (Homo sapiens, UniProt P56817)?
Given back: ≤ 1000 nM

Asked: Given the entry CC#CCOc1cnc(C(=O)Nc2ccc(F)c(C3(/N=C(/N)SC)CC3)c2)cn1 [Compound 15] , what IC50 was observed with Recombinant human BACE1 (Homo sapiens, UniProt P56817)?
Given back: 140 nM

Asked: Given the entry CC#CCOc1cnc(C(=O)Nc2cccc(C3(/N=C(/N)SC)CC3)c2)cn1 [Compound 14] , what IC50 was observed with Recombinant human BACE1 (Homo sapiens, UniProt P56817)?
Given back: ≤ 1000 nM

Asked: Given the entry CC#CCOc1cnc(C(=O)Nc2ccc(F)c(C/N=C(/N)SC)c2)cn1 [Compound 16] , what IC50 was observed with Recombinant human BACE1 (Homo sapiens, UniProt P56817)?
Given back: ≤ 1000 nM

Asked: Given the entry CO/C(N)=N\C(c1ccc(Cl)cc1)c1cccc(NC(=O)c2ccc(C#N)cn2)c1 (stereo not shown) [Compound 91] , what IC50 was observed with Recombinant human BACE1 (Homo sapiens, UniProt P56817)?
Given back: ≤ 1000 nM

Asked: Given the entry CO/C(N)=N\C(c1ccc(Cl)cc1)c1cccc(NC(=O)c2ccc(Cl)cn2)c1 (stereo not shown) [Compound 93] , what IC50 was observed with Recombinant human BACE1 (Homo sapiens, UniProt P56817)?
Given back: ≤ 1000 nM

Asked: Given the entry COC(=N)NC(c1ccc(OCc2ccccc2)cc1)c1cccc(NC(=O)c2ccc(C#N)cn2)c1 (stereo not shown) [Compound 96] , what IC50 was observed with Recombinant human BACE1 (Homo sapiens, UniProt P56817)?
Given back: ≤ 1000 nM

Asked: Given the entry CS/C(N)=N\c1c(C)ccc2ccc(NC(=O)c3ccc(C#N)cn3)cc12 [Compound 79] , what IC50 was observed with Recombinant human BACE1 (Homo sapiens, UniProt P56817)?
Given back: ≤ 1000 nM

Asked: Given the entry CC#CCOc1cnc(C(=O)Nc2cccc(C(/N=C(/N)OC)c3ccc(Cl)cc3)c2)cn1 (stereo not shown) [Compound 94] , what IC50 was observed with Recombinant human BACE1 (Homo sapiens, UniProt P56817)?
Given back: 32 nM

Asked: Given the entry CO/C(N)=N/C(c1ccc(F)cc1)c1cccc(NC(=O)c2ccc(C#N)cn2)c1 (stereo not shown) [Compound 50] , what IC50 was observed with Recombinant human BACE1 (Homo sapiens, UniProt P56817)?
Given back: 188 nM

Asked: Given the entry CO/C(N)=N/C(c1ccccc1)c1cccc(NC(=O)c2ccc(C#N)cn2)c1 (stereo not shown) [Compound 48] , what IC50 was observed with Recombinant human BACE1 (Homo sapiens, UniProt P56817)?
Given back: ≤ 1000 nM
